# ASSAYED SYSTEM: T1, cyno IL-23 (cyno, limits assumed)
# T1 construct: Heterodimer of p19 and p40; also called cynomolgus IL-23
# T1 chain 1: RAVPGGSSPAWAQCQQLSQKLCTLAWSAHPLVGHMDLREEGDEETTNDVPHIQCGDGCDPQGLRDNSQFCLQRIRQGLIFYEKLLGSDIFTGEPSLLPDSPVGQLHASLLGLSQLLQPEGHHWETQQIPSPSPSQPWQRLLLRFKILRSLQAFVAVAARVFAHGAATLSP
# T1 chain 2: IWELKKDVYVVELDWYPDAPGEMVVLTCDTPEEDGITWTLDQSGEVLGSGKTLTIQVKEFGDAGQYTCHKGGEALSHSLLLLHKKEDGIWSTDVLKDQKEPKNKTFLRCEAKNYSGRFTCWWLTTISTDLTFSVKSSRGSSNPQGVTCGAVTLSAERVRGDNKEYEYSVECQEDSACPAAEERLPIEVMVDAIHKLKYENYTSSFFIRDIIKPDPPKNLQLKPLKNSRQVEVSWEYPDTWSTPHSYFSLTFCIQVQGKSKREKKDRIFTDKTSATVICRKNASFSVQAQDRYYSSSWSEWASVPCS
# PROTOCOL: SPR Biacore, purified mAb captured on anti-human IgG, cyno IL-23 64-0.062 nM
MEASURE NAME: kon (M⁻¹ s⁻¹)

>  <BINDER>
A5M0 (antibody, human IgG1, kappa, V domains shown) VH: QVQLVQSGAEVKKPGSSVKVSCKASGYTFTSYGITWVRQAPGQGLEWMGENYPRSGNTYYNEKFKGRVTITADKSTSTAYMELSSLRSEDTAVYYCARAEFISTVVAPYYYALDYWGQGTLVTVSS VL: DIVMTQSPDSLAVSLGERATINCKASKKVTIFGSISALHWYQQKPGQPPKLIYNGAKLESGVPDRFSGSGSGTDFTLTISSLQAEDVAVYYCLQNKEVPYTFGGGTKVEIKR

>  <MEASURE NAME>
kon

>  <READING>
1.3e+06

$$$$

Hey, just so you know, these numbers are from patent US20120128689A1.
